Give measured composite z-score for each item. Keep answers brief.
system: Inhibin beta A chain (activin A); experiment: small molecules binding activin A – biochemical, small-molecule microarray, 635 nm fluorescence scan, primary screen (AID 1107); conditions: INHBA, higher = more signal;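 note: mouse activin A protein probed at 4.33 µg/mL on printed slides; score merges bound-protein fluorescence near 667 nm with spot signal-to-noise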

`COCCn1c(C(=O)N(C)C)cc2c1C[C@H]1CN(C(=O)c3ccccc3)[C@@](Cc3ccc(OC)cc3)(C(=O)OC)[C@@H]21` yielded composite z-score of 1.21

`COC(=O)[C@@]1(Cc2ccc(F)cc2)[C@H]2c3cc(C(=O)N4CCCC4)n(Cc4ccccn4)c3C[C@H]2CN1C(=O)c1ccccc1` yielded composite z-score of 0.855

C=CCC(OC(C)=O)[C@@H]1[C@@H](N(Cc2cccc3ccccc23)C(=O)Cc2ccc(OC)cc2)c2cc(OCCCO)ccc2N1C(=O)Cc1ccc2ccccc2c1 (stereo partly drawn) yielded composite z-score of 0.68

---

Give measured z-score for each item. Keep answers brief.
test: compound effects on differentiated 3T3-L1 adipocyte viability – cell-based, 3T3-L1 adipocytes, calcein-AM fluorescence, 48 h, basal, profiling panel (AID 1163); settings: 3T3-L1 adipocytes viability, higher = more signal; note: test concentration not given here
// no unit string in output, number only

`O=C1O[C@@H](c2ccccc2)[C@@H](c2ccccc2)N2[C@@H](c3ccc(OCCO)cc3)[C@]3(C(=O)Nc4ccc(C#CC5(O)CCCCCC5)cc43)[C@@H](C(=O)Nc3nc4ccccc4s3)[C@H]12` yielded z-score of 1.33

[N-]=[N+]=Nc1ccccc1C[C@@]1(C(=O)NCC(O)CO)N=C(c2ccc(OCCCO)cc2)O[C@@H]1c1ccccc1 (stereo partly specified) yielded z-score of -0.326

`COc1ccc([Si](C)(C)[C@@H]2[C@@H](CC(=O)N3CCC[C@H]3CO)O[C@]3(C(=O)N(Cc4cccc(N5CCCCC5=O)c4)c4ccccc43)[C@H]2C)cc1` yielded z-score of 0.403

`CC(=O)NCCCC[C@@H]1NC(=O)[C@H]2C[C@@H](C(=O)NCCCCCCNC(=O)CS)[C@@H](c3cccc(OCCO)c3)N2C1=O` yielded z-score of 0.251

`C=CCNC(=O)[C@H]1[C@@H]2C(=O)O[C@@H](c3ccccc3)[C@@H](c3ccccc3)N2[C@@H](c2ccc(OCCO)cc2)[C@]12C(=O)Nc1ccc(C#CC3(O)CCCCCC3)cc12` yielded z-score of 1.36

C=CCC(OC(C)=O)[C@@H]1[C@@H](N(Cc2cc3ccccc3o2)C(=O)Cc2ccc(OC)cc2)c2cc(OCCCO)ccc2N1C(=O)c1ccc2ccccc2n1 (stereo partly specified) yielded z-score of 1.46

CCCCC(O)C1C=CC2C(=O)N(c3ccccc3)C(=O)C2N1Nc1ccc([N+](=O)[O-])cc1 (stereo unspecified) yielded z-score of -0.229

`C#CCN1[C@@H](Cc2ccccc2)C(=O)O[C@H](Cc2ccccc2)[C@@H]1/C=C/C1CC1` yielded z-score of -0.488

C=CCC(OC(C)=O)[C@@H]1[C@@H](N(Cc2ccc(-c3cccc(C(F)(F)F)c3)o2)C(=O)Cc2ccc(F)cc2)c2cc(OCCCO)ccc2N1C(=O)Cc1ccc2ccccc2c1 (stereo partly specified) yielded z-score of 1.1

CN1C(=O)C2C=CC(C(O)c3ccc(-c4ccccc4)s3)N(NC(=O)OC(C)(C)C)C2C1=O (stereo unspecified) yielded z-score of -1.6

`C[N+](C)(C)CCCCNC(=O)[C@H]1C[C@H]2C(=O)N[C@@H](Cc3ccccc3)C(=O)N2[C@H]1c1cccc(OCCO)c1` yielded z-score of -0.878

`C=CCN1C(=O)[C@@]2(O[C@@H](CCn3cc([C@H](O)c4ccccc4)nn3)[C@H]([Si](C)(C)c3ccc(OC)cc3)[C@H]2C)c2cc(N3C(=O)c4cccc5cccc3c45)ccc21` yielded z-score of -0.0484

COc1ccc(C(O)C2C=CC3C(=O)N(c4ccccc4)C(=O)C3N2Nc2ccc(C#N)cc2)cc1OCc1ccccc1 (stereo unspecified) yielded z-score of -0.735

CC(=O)OCC1C2CC[C@H]3C(OCc4ccc(F)cc4C(F)(F)F)OC[C@]4(C)[C@H]3C2=C(CN4C(=O)OC(C)(C)C)[C@H](C)C1COC(C)=O (stereo partly specified) yielded z-score of -0.0623

`C=CCOC(=O)[C@@H]1[C@H]2C(=O)O[C@H](c3ccccc3)[C@H](c3ccccc3)N2[C@H](c2ccc(OCCOC(=O)[C@H]3C[C@H]4C(=O)N[C@@H](CCCCN(C)C)C(=O)N4[C@H]3c3ccc(O)cc3)cc2)[C@@]12C(=O)Nc1ccc(I)cc12` yielded z-score of -0.357

`CC(C)C(=C=CC[C@H](O)c1ccccc1OCCO)C[C@H](O)COCc1ccccc1` yielded z-score of -0.0066

`CCCCCCc1nc(-c2ccc(-c3ccc(Cl)c(Cl)c3)o2)cc2c1[Si](C(C)C)(C(C)C)OC2` yielded z-score of 1.84

`O=C(NC1CC1)[C@@H]1c2ccccc2C(=O)N(CC23CC4CC(CC(C4)C2)C3)[C@H]1c1ccc(CO)cc1` yielded z-score of 0.875

O=C(NCC(O)CO)[C@@]1(CCS(=O)(=O)c2ccccc2)N=C(c2ccc(OCCCO)cc2)O[C@H]1c1ccccc1 (stereo partly specified) yielded z-score of 0.719

`[N-]=[N+]=Nc1ccccc1C[C@@]1(C(=O)NCc2ccccc2)N=C(c2ccc(OCCCO)cc2)O[C@@H]1c1ccccc1N=[N+]=[N-]` yielded z-score of 1.31

CN1C(=O)C2C(C1=O)C1C=C(CCCO)C2C(C2CC2)N1Cc1cccc(OC(F)(F)F)c1 (stereo unspecified) yielded z-score of 0.116

CC1CC/C=C\[C@H]2OC34C=CCN(c5ccc(Cl)cc5)C(=O)[C@H]3N(CCCCCCO)C(=O)[C@]4(C)C2C(=O)O1 (stereo partly specified) yielded z-score of -3.94

`CN(C)CCCC[C@@H]1NC(=O)[C@@H]2C[C@H](C(=O)NCCCCCCNC(=O)CS)[C@H](c3ccc(O)cc3)N2C1=O` yielded z-score of -0.145

`COC(=O)[C@@]1(Cc2ccccc2)[C@H]2c3cc(C(=O)N(C)C)n(Cc4ccc(C(F)(F)F)nc4)c3C[C@H]2CN1C(=O)c1ccccc1` yielded z-score of 0.286

`COCCOC(=O)N1C(=O)[C@@]2(c3cc(C#Cc4ccc(OC)cc4)ccc31)[C@H](c1ccc(OCCO)cc1)N1[C@H](c3ccccc3)[C@H](c3ccccc3)OC(=O)[C@H]1[C@@H]2C(=O)NC[C@H](O)c1ccccc1` yielded z-score of -0.129

O=C1C2C=CC(C(O)c3ccc([N+](=O)[O-])cc3)N(Nc3ccccc3F)C2C(=O)N1c1ccccc1 (stereo unspecified) yielded z-score of -0.923

---

assay: compound effects on differentiated 3T3-L1 adipocyte viability – cell-based, 3T3-L1 adipocytes, calcein-AM fluorescence, 48 h, basal, profiling panel (AID 1163); details: 3T3-L1 adipocytes viability, higher = more signal; note: test concentration not given here
Kindly apply the following: label 1 if z-score is less than 0.0009, label 0 in every other case.

[Q] Just wondering, is z-score of `CCCC=C(CCC)[C@@H](NC(=O)OCC(C)C)c1ccc(C(=O)OC)cc1` below 0.0009?
[A] label 1

[Q] Just wondering, is z-score of `Cc1ccc(F)cc1S(=O)(=O)N[C@H]1CCN(Cc2ccc(OC(C)C)cc2)C1` below 0.0009?
[A] label 1

[Q] Just wondering, is z-score of COc1ccc(C(O)C2C=CC3C(=O)N(c4ccccc4)C(=O)C3N2Nc2ccc([N+](=O)[O-])cc2)c2ccccc12 (stereo not drawn) below 0.0009?
[A] label 1

[Q] Just wondering, is z-score of CC(C)C(O)C1C=CC2C(=O)NC(=O)C2N1Nc1ccccn1 (stereo not drawn) below 0.0009?
[A] label 0

[Q] Just wondering, is z-score of `O=C(N1CCOCC1)[C@@]1(Cc2ccccc2)COC(c2ccc(OCCCO)cc2)=N1` below 0.0009?
[A] label 0

[Q] Just wondering, is z-score of [N-]=[N+]=NCc1ccccc1[C@@H]1OC(c2ccc(OCCCO)cc2)=N[C@]1(Cc1ccccc1N=[N+]=[N-])C(=O)NCC(O)CO (stereo partly drawn) below 0.0009?
[A] label 0

[Q] Just wondering, is z-score of `C=C1C(=O)C=C2CN(C(=O)c3ccccc3)[C@@](Cc3ccc(OC)cc3)(C(=O)OC)[C@@H]12` below 0.0009?
[A] label 1

---

Give measured composite z-score for each item. Keep answers brief.
assay: probe aNOTCH2 binding on compound microarray – biochemical, small-molecule microarray, 635/667 nm fluorescence, primary screen (AID 1121); settings: higher = more signal;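 note: score merges feature fluorescence read at 667 nm with its signal to noise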

CCN(CC)c1ccc(N2CC=CC34O[C@@H]5C=CCCOC(=O)C5[C@H]3C(=O)N(C(C)CO)[C@@H]4C2=O)cc1 (some centres undefined) yielded composite z-score of -0.159

`O=C1C[C@@](C(=O)O)(c2ccc([N+](=O)[O-])cc2)[C@@H](c2ccc(CO)cc2)N1C1CCCCC1` yielded composite z-score of -0.0029

CN1C(=O)C2C(C1=O)C1C=C(c3ccc(CO)cc3)C2C(C2CC2)N1C (centres undefined) yielded composite z-score of -0.0859

`COCCn1c(C(=O)N(C)C)cc2c1C[C@H]1CN(C(=O)c3ccccc3)[C@@](Cc3ccc(OC)cc3)(C(=O)OC)[C@@H]21` yielded composite z-score of 0.0323

Reference for the values: PubChem BioAssay
